- assayedSystem: GAS1 ectodomain (GAS1-Ecto), FLAG-HaloTag7-tagged (human) (UniProt P54826)
- testSummary: ITC
No end group written: not given here. *: point of attachment. Palmitoyl = CCCCCCCCCCCCCCCC(=O)*
propertyName: pKd
Reminder that pKd means the negative base-10 logarithm of the concentration expressed in mol/L.

// recorded pKd for Palmitoyl-SGPGRGFGK [truncated, palmitoylated SHH EP (9aa, residues 24–32)] : 5.43
